Source of measurements: ChEMBL document CHEMBL3407472

System: Hepatitis C virus
Assay: Antiviral activity against Hepatitis C virus genotype 1b infected in human Huh cells assessed as inhibition of viral replication by RT-PCR-based replicon assay
Format: functional, cell-based, Hepacivirus hominis
property: EC50 (nM)

[1] CCOc1nc(NC(=O)C(C)(C)NC(=O)c2ccc3c(C4CCCC4)c(-c4ccccn4)n(C)c3c2)cnc1/C=C/C(=O)O
[2] COc1nc(NC(=O)C2(NC(=O)c3ccc4c(C5CCCC5)c(-c5cnccn5)n(C)c4c3)CCC2)ccc1/C=C/C(=O)O
[3] CCOc1nc(NC(=O)C2(NC(=O)c3ccc4c(c3)c(C)c(-c3ccc(F)cn3)n4C3CCCCC3)CCCC2)ccc1/C=C/C(=O)O
[4] COc1nc(NC(=O)C(C)(C)NC(=O)c2ccc3c(C4CCCC4)c(-c4cncnc4)n(C)c3c2)cnc1/C=C/C(=O)O
Lookup: I'd appreciate it if you sorted the entries above by their EC50, lowest to highest. Provide the ranking by listing each label in its place in the requested order.
Found: 3, 2, 1, 4

* * *

Experiment: Lipophilicity, log D of the compound at pH 7.4
Assay type: physicochemical
Conditions: buffer
property: logD

[[record]]
smiles_data = "COc1nc(NC(=O)C2(NC(=O)c3ccc4c(C5CCCC5)c(-c5ncc(Cl)cn5)n(C)c4c3)CCC2)ccc1/C=C/C(=O)O"
endpoint_value = 3.7

[[record]]
smiles_data = "COc1nc(NC(=O)C2(NC(=O)c3ccc4c(c3)c(C)c(-c3ccc(F)cn3)n4C3CCCCC3)CCCC2)cnc1/C=C/C(=O)O"
endpoint_value = 3.2

[[record]]
smiles_data = "COc1nc(NC(=O)C2(NC(=O)c3ccc4c(c3)c(C)c(-c3ccc(F)cn3)n4C3CCCCC3)CCC2)cnc1/C=C/C(=O)O"
endpoint_value = 3.3

[[record]]
smiles_data = "CCOc1nc(NC(=O)C2(NC(=O)c3ccc4c(c3)c(C)c(-c3ccc(F)cn3)n4C3CCCCC3)CCCC2)cnc1/C=C/C(=O)O"
endpoint_value = 4.2


* * *

Test: Permeability from apical to basolateral side of human Caco2 cells
Format: ADME, cell-based
Conditions: Caco-2, read-out: permeability
property: Papp A→B (×10⁻⁶ cm/s)

[[record]]
smiles_data = "CCOc1nc(NC(=O)C2(NC(=O)c3ccc4c(C5CCCC5)c(-c5ccc(Cl)cn5)n(C)c4c3)CCC2)ccc1/C=C/C(=O)O"
endpoint_value = 15

[[record]]
smiles_data = "CCOc1nc(NC(=O)C2(NC(=O)c3ccc4c(C5CCCC5)c(-c5ncc(Cl)cn5)n(C)c4c3)CCC2)ccc1/C=C/C(=O)O"
endpoint_value = 15

[[record]]
smiles_data = "CCOc1nc(NC(=O)C2(NC(=O)c3ccc4c(C5CCCC5)c(-c5cncnc5)n(C)c4c3)CCC2)ccc1/C=C/C(=O)O"
endpoint_value = 17

[[record]]
smiles_data = "CCOc1nc(NC(=O)C2(NC(=O)c3ccc4c(c3)c(C)c(-c3ccc(F)cn3)n4C3CCCCC3)CCC2)ccc1/C=C/C(=O)O"
endpoint_value = 15


* * *

Assay: Permeability from apical to basolateral side of human Caco2 cells
Format: ADME, cell-based
Settings: Caco-2, read-out: permeability
property: Papp A→B (×10⁻⁶ cm/s)

[[record]]
smiles_data = "CCOc1nc(NC(=O)C2(NC(=O)c3ccc4c(C5CCCC5)c(-c5ccc(F)cn5)n(C)c4c3)CCC2)ccc1/C=C/C(=O)O"
endpoint_value = 14


[I] CCOc1nc(NC(=O)C2(NC(=O)c3ccc4c(C5CCCC5)c(-c5cnccn5)n(C)c4c3)CCC2)ccc1/C=C/C(=O)O
[II] CCOc1nc(NC(=O)C2(NC(=O)c3ccc4c(C5CCCC5)c(-c5ccccn5)n(C)c4c3)CCC2)ccc1/C=C/C(=O)O
Lookup: Which of the two items, I and II , has the greater recorded Papp A→B? Identify your pick by its label.
Found: II
(II: 21 ×10⁻⁶ cm/s, I: 13 ×10⁻⁶ cm/s)

* * *

Tested on: Hepatitis C virus
Assay: Antiviral activity against Hepatitis C virus genotype 1b infected in human Huh cells assessed as inhibition of viral replication by RT-PCR-based replicon assay
Format: functional, cell-based, Hepacivirus hominis
pEC50: −log10 of the molar value.
property: pEC50

These recorded examples may help you get a feel for the data.
[[record]]
smiles_data = "CCOc1nc(NC(=O)C2(NC(=O)c3ccc4c(C5CCCC5)c(-c5ccc(Cl)cn5)n(C)c4c3)CCC2)ccc1/C=C/C(=O)O"
endpoint_value = 7.89

[[record]]
smiles_data = "COc1nc(NC(=O)C2(NC(=O)c3ccc4c(c3)c(C)c(-c3ccc(F)cn3)n4C3CCCCC3)CCC2)ccc1/C=C/C(=O)O"
endpoint_value = 8.00

[[record]]
smiles_data = "COc1nc(NC(=O)C(C)(C)NC(=O)c2ccc3c(C4CCCC4)c(-c4ncc(Cl)cn4)n(C)c3c2)ccc1/C=C/C(=O)O"
endpoint_value = 7.33


[I] CCOc1nc(NC(=O)C2(NC(=O)c3ccc4c(C5CCCC5)c(-c5ncc(Br)cn5)n(C)c4c3)CCC2)cnc1/C=C/C(=O)O
[II] COc1nc(NC(=O)C(C)(C)NC(=O)c2ccc3c(C4CCCC4)c(-c4cnccn4)n(C)c3c2)ccc1/C=C/C(=O)O
Lookup: Would you mind telling me which has the lower recorded pEC50 between I and II ? Answer format: the label of the selected item.
Found: I
(I: 7.52, II: 7.80)

[I] COc1nc(NC(=O)C2(NC(=O)c3ccc4c(C5CCCC5)c(-c5ncc(Cl)cn5)n(C)c4c3)CCCC2)cnc1/C=C/C(=O)O
[II] CCOc1nc(NC(=O)C(C)(C)NC(=O)c2ccc3c(C4CCCC4)c(-c4cncnc4)n(C)c3c2)ccc1/C=C/C(=O)O
Lookup: Would you mind telling me which has the lower recorded pEC50 between I and II ? Please identify the chosen entry by its label.
Found: I
(I: 7.54, II: 7.92)

* * *

Assay: Bioavailability in dog at 5 mg/kg, po and 2 mg/kg, iv
Type: ADME, organism-based, Canis lupus familiaris
Settings: in vivo
property: bioavailability (%)

[[record]]
smiles_data = "CCOc1nc(NC(=O)C(C)(C)NC(=O)c2ccc3c(C4CCCC4)c(-c4ccc(F)cn4)n(C)c3c2)ccc1/C=C/C(=O)O"
endpoint_value = 69


[P] CCOc1nc(NC(=O)C2(NC(=O)c3ccc4c(c3)c(C)c(-c3ccc(F)cn3)n4C3CCCCC3)CCC2)ccc1/C=C/C(=O)O
[Q] CCOc1nc(NC(=O)C2(NC(=O)c3ccc4c(C5CCCC5)c(-c5ccc(F)cn5)n(C)c4c3)CCC2)ccc1/C=C/C(=O)O
Lookup: Lab notebook, comparison: P versus Q , higher bioavailability goes to which? Your answer should be the label of the entry you select.
Found: Q
(Q: 61%, P: 42%)

* * *

Experiment: Half life in rat at 5 mg/kg, po and 2 mg/kg, iv
Assay type: ADME, organism-based
Settings: in vivo
property: half-life (h)

[[record]]
smiles_data = "CCOc1nc(NC(=O)C(C)(C)NC(=O)c2ccc3c(C4CCCC4)c(-c4ccc(F)cn4)n(C)c3c2)ccc1/C=C/C(=O)O"
endpoint_value = 2.8

[[record]]
smiles_data = "CCOc1nc(NC(=O)C2(NC(=O)c3ccc4c(c3)c(C)c(-c3ccc(F)cn3)n4C3CCCCC3)CCC2)ccc1/C=C/C(=O)O"
endpoint_value = 1.7

[[record]]
smiles_data = "CCOc1nc(NC(=O)C2(NC(=O)c3ccc4c(C5CCCC5)c(-c5ccc(F)cn5)n(C)c4c3)CCC2)ccc1/C=C/C(=O)O"
endpoint_value = 2.1


* * *

Tested on: Hepatitis C virus
Assay: Antiviral activity against Hepatitis C virus genotype 1b infected in human Huh cells assessed as inhibition of viral replication by RT-PCR-based replicon assay
Assay type: functional, cell-based, Hepacivirus hominis
property: EC50 (nM)

[a] CCOc1nc(NC(=O)C(C)(C)NC(=O)c2ccc3c(C4CCCC4)c(-c4ncc(Br)cn4)n(C)c3c2)ccc1/C=C/C(=O)O
[b] CCOc1nc(NC(=O)C2(NC(=O)c3ccc4c(C5CCCC5)c(-c5cncnc5)n(C)c4c3)CCC2)ccc1/C=C/C(=O)O
[c] CCOc1nc(NC(=O)C2(NC(=O)c3ccc4c(C5CCCC5)c(-c5ncc(Br)cn5)n(C)c4c3)CCCC2)cnc1/C=C/C(=O)O
[d] COc1nc(NC(=O)C2(NC(=O)c3ccc4c(C5CCCC5)c(-c5cnccn5)n(C)c4c3)CCC2)cnc1/C=C/C(=O)O
Lookup: Exam item: list the entries in increasing order of EC50. Return the labels ranked in the requested order, please.
Found: a, c, b, d

* * *

Biological target: Amine oxidase [flavin-containing] A (Homo sapiens, UniProt P21397)
Sequence (P21397 whole entry): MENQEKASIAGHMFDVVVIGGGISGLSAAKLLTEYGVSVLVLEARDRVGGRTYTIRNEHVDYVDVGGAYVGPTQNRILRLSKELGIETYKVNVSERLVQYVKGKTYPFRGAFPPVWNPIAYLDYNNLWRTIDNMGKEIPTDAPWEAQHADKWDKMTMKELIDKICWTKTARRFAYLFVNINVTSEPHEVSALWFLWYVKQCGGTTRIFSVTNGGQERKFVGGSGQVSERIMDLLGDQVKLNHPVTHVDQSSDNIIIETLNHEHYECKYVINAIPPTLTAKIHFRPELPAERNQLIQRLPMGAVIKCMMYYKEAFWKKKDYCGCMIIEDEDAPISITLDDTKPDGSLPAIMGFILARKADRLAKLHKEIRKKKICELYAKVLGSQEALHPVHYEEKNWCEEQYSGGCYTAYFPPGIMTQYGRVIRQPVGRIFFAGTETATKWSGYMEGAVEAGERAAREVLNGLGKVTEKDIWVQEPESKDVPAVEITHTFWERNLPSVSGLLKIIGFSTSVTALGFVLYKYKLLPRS
property: IC50 (nM)
Your answer should be a plain number; it is taken to be in nM.

Lookup: # IC50 lookup, item CCOc1nc(NC(=O)C(C)(C)NC(=O)c2ccc3c(C4CCCC4)c(-c4ccc(F)cn4)n(C)c3c2)ccc1/C=C/C(=O)O
Found: 1300
